# Test system: HCC-2998 colon
# experimentNotes: NCI-60 one-dose screen, 48 h (100 = growth as untreated, 0 = no growth, -100 = all killed)
# assayContext: 10 µM
Compounds without any hit were thinned out: in the full panel of roughly 83,000, 20% have a hit.
So I've got a bunch of compounds here, and I need their growth values.
Answers are plain numbers, in %.

{"moleculeSmiles": "COC(=O)c1c(C)nc(Nc2nc3ccccc3s2)nc1-c1ccc(Cl)cc1Cl", "quantitativeReadout": 108}
{"moleculeSmiles": "O=C(O)c1cc(C(F)(F)F)cc(C(F)(F)F)c1", "quantitativeReadout": 103}
{"moleculeSmiles": "Cc1cc(C)c2c(Nc3ncnc4c3sc3nc(C)cc(C)c34)n[nH]c2n1", "quantitativeReadout": 113}
{"moleculeSmiles": "Cn1c([N+](=O)[O-])cnc1/C=C1\\Oc2ccc(Br)cc2C1=O", "quantitativeReadout": -51.7}

// query Consider the compound shown here: `CCc1ccc(-c2nnc(COc3ccc(-c4nc5ccccc5[nH]4)cc3OC)o2)cc1` What is its recorded growth?
// result 81.6
